experiment: Preliminary solubility of Compound 1 Form I, visual assessment; type: physicochemical; details: organic solvent or mixture, thermodynamic from solid; DMSO; estimated via visual assessment
Experimental readout: solubility
Record the result as number plus unit.

So what does the record say about solubility for CC(=O)N1CCC(COc2cc(F)c3c(=O)[nH]c(CSC4CCOCC4)nc3c2)CC1 [Form I] ?
16.7 mg/mL

----------
assay: Dynamic solubility of Form II in mixed solvents, dissolution observed visually; format: physicochemical; details: volume ratio 1/2, organic solvent or mixture, thermodynamic from solid; MEK/Ethyl formate, volume ratio ½; RT; read-out: Solubility
Experimental readout: solubility at 30 min

Reported solubility at 30 min, compound CC(=O)N1CCC(COc2cc(F)c3c(=O)[nH]c(CSC4CCOCC4)nc3c2)CC1 [Form II] : ____
< 1000 µg/mL
